pIC50 overview
# test.target: recombinant autotaxin (Homo sapiens, UniProt Q13822)
# protocol.summary: Autotaxin test (enzyme test), Amplex Red fluorescence readout
# particulars: Autotaxin inhibition (enzyme test); substrate LPC 75 μM, 37° C. for 90 min
# Experimental: Pharmacological Data Autotaxin Inhibition (Enzyme Test) Autotaxin Test (Enzyme Test) The autotaxin activity is measured indirectly using Amplex Red reagent. Amplex Red is measured here as fluorogenic indicator for the H2O2 formed. […] The fluorescence is measured in a reaction-dependent kinetic mode in order that fluorescent signals from possible other fluorescent substances which are not involved in the reaction can be corrected out. […]
pIC50: −log10 of the molar value.
assay.endpoint: pIC50

>>> print(df.to_string())
                                   molecule  assay_endpoint  assay_result
0  O=C(CN1CCN(C(=O)CCOc2ccc(Cl)cc2)CC1)c1ccc2[nH]c(=O)oc2c1           pIC50        < 6.00
1  O=C(CCCN1CCN(C(=O)OCc2ccc(Cl)cc2)CC1)Nc1ccc2[nH]nnc2c1           pIC50        < 6.00
2  O=C(Nc1ccc2[nH]c(=O)oc2c1)C(c1ccccc1)N1CCN(C(=O)OCc2ccc(Cl)cc2)CC1 (centres unmarked)           pIC50        < 6.00
3  O=C(CNC1CCN(C(=O)OCc2cc(Cl)cc(Cl)c2)CC1)Nc1ccc2[nH]c(=O)oc2c1           pIC50  6.00 to 7.00
4  O=C(Cc1ccc2[nH]nnc2c1)N1CCN(C(=O)OCc2ccc(Cl)cc2)CC1           pIC50        < 6.00
5  O=C(CN1CCN(C(=O)OCc2ccc(Cl)cc2)CC1)Nc1ccc2[nH]c(=O)oc2c1           pIC50        < 6.00
6  O=C(NCCN1CCN(C(=O)OCc2ccc(Cl)cc2F)CC1)c1ccc2[nH]nnc2c1           pIC50        < 6.00
7  O=C(OCc1cc(Cl)cc(Cl)c1)N1CCN(CC(O)c2ccc3[nH]c(=O)oc3c2)CC1 (centres unmarked)           pIC50        < 6.00

###

# test.target: recombinant autotaxin (Homo sapiens)
# protocol.summary: Autotaxin test (enzyme test), Amplex Red fluorescence readout
# particulars: Autotaxin inhibition (enzyme test); substrate LPC 75 μM, 37° C. for 90 min
pIC50: −log10 of the molar value.
assay.endpoint: pIC50

>>> print(df.to_string())
                                   compound  assay_result
0  O=C(OCc1cc(Cl)cc(Cl)c1)N1CCN(CCC(O)c2ccc3[nH]c(=O)oc3c2)CC1 (stereo not shown)  6.00 to 7.00
1  O=C(CC(=O)NC1CCN(C(=O)OCc2ccc(Cl)cc2)CC1)Nc1ccc2[nH]nnc2c1  6.00 to 7.00
2  O=C(OCc1cc(Cl)cc(Cl)c1)N1CCN(CCN2CCC(c3ccc4[nH]c(=O)oc4c3)=N2)CC1        < 6.00
3  O=C(CN1CCC(NC(=O)OCc2cc(Cl)cc(Cl)c2)C1)Nc1ccc2[nH]nnc2c1 (stereo not shown)        < 6.00
4  O=C(NC1[C@H]2CN(C(=O)OCc3cc(Cl)cc(Cl)c3)C[C@@H]12)c1ccc2nn[nH]c2c1 (stereo partly shown)        < 6.00
5  O=C(CCN1CCN(C(=O)OCc2ccc(Cl)cc2)CC1)Nc1ccc2[nH]c(=O)oc2c1        < 6.00
6  O=C(OCc1ccc(Cl)cc1)N1CCN(CCC(F)(F)c2ccc3[nH]c(=O)oc3c2)CC1  6.00 to 7.00
7  O=C(NCCN1CCN(C(=O)OCc2ccc(C(F)(F)F)cc2)CC1)c1ccc2[nH]nnc2c1        < 6.00
8  O=C(NCCN1CCN(C(=O)OCc2cc(Cl)cc(Cl)c2)CC1)c1ccc2[nH]nnc2c1  6.00 to 7.00
9  O=C(CCNC(=O)N1CCN(C(=O)OCc2ccc(Cl)cc2)CC1)Nc1ccc2[nH]nnc2c1        < 6.00

Hello, the source for this data is patent US8841324B2, in case you need it.
